parameters: species or system CD-1 mice; details: mouse, in vivo, iv
Field: Capillary Depletion: Capillary (capillary/serum ratio). Provide a value for each of the substances that follow.
One number for each entry, in µL/g.

Answered examples (3):
| substance | observedResult |
| --- | --- |
| YXEGTFTSDYSIYLDKQAAXEFVNWLLAGGPSSGAPPPSK-NH2 [Peptide 18] | 0.764 |
| YXEGTFTSDYSIYLDKQAAXEFVNWLLAGGPSSGAPPPSK-NH2 [DA3-CH] | 0.637 |
| YXEGTFTSDYSIYLDKQAAXEFVNWLLAGGPSSGAPPPSKKKKKK-NH2 [DA-JC4] | 1.129 |

For each of the substances below, note its Capillary Depletion: Capillary (capillary/serum ratio).
1. YXEGTFTSDYSIYLDKQAAXEFVNWLLAGGPSSGAPPPSC-NH2 [Peptide 17]
2. YXEGTFTSDYSIYLDKQAAXEFVC ^*WLLAGGPSSGAPPPSK-NH2 [Peptide 20]
3. HXEGTFTSDVSSYLEGQAAK^bEFIAWLVRGRG-OH [Semaglutide]

1. 0.543
2. 0.796
3. 0.434

Provenance of the data: paper PMC7606641
